# Test system: SF-539 CNS
# experimentSummary: NCI tumour cell line growth inhibition, 48 h; in the data active means GI50 below about 0.43 µM; inactive means the rest
Assign a class; possible classes are active, inactive

{"inputSmiles": "COc1ccc(C(=O)/C=C/c2cccc([N+](=O)[O-])c2)c(OC)c1", "labelClass": "inactive"}
{"inputSmiles": "N.N.N.N.N.[Cl-].[Co+3].c1ccc(-c2nn[n-]n2)cc1", "labelClass": "inactive"}
{"inputSmiles": "COc1cccc(-c2nn(-c3ccccc3)cc2-c2ccnc(NCCCNC(=O)Nc3ccc(Cl)c(Cl)c3)c2)c1", "labelClass": "inactive"}
{"inputSmiles": "CCCCC[C@H]1C/C=C2/C(=O)C=C[C@@H]2C/C=C\\CCCC(=O)O[C@@H](CCCCC)C/C=C2/C(=O)C=C[C@@H]2C/C=C\\CCCC(=O)O1", "labelClass": "active"}
{"inputSmiles": "COc1cc2c(cc1O)CC[C@@H]1[C@@H]2CC[C@]2(C)[C@@H](OCCN(C)C)CC[C@@H]12", "labelClass": "active"}

Please look at the following compound next.
Q: Write down the call the test reported for this compound. Item: COc1cc(Nc2c(C#N)cnc3cc(OCCCN4CCN(C)CC4)c(OC)cc23)c(Cl)cc1Cl
Result: inactive
